- System: HCT-15 colon
- ASSAY PROTOCOL: NCI tumour cell line growth inhibition, 48 h

MOLECULE | TGI
Cc1cccc(Nc2nn3c(=O)c4c5c(sc4nc3s2)CCCC5)c1 | > 100 µM
CC(C)(C)C(=O)OCC1C(=O)OCC1C(=O)N1Cc2cc3ccccc3nc2C1 (centres undefined) | 6.36 µM
CCOC(=O)CCC(NC(=O)OCc1ccccc1)C(=O)NC(CCC(=O)OCC)C(=O)NC(CCC(=O)OCC)C(=O)NC(CCC(=O)OCC)C(=O)NC(CCC(=O)OCC)C(=O)NC(CCC(=O)OCC)C(=O)NC(CCC(=O)OCC)C(=O)OCC (centres undefined) | > 100 µM
ClCCCc1ccccc1C1=NCCc2ccccc21 | > 100 µM
CCCCCCCC/C=C\CCCCCCC/C=C1\C[C@](/C=C/C(=O)OC)(CO)OC1=O | 8.22 µM
CSc1nnc(CCC(=O)Nc2c(C)cccc2C)o1 | > 100 µM
COc1ccc(C2=Nc3cc(C)c(C)cc3NC(c3ccccc3)C2)cc1 (centres undefined) | > 100 µM
COc1cc(C(=O)c2c(-c3ccccc3)oc3c(OC)cccc23)cc(OC)c1OC | > 100 µM
NNC(=O)C1CCC(=O)N1S(=O)(=O)c1ccccc1 (centres undefined) | > 100 µM
Cc1ccc([S@](=O)c2occc2C=O)cc1 | 9.84 µM
COP(=O)(OC)C(Cc1cn(C(C)=O)c2ccccc12)C(=O)O (centres undefined) | > 100 µM
Cc1cc(S(=O)(=O)N/C(=C(\C#N)C(=O)c2ccc(Cl)cc2)[n+]2ccc(N(C)C)cc2)c([S-])cc1Cl | > 100 µM
C=CCN=C(N/N=C/c1ccc([N+](=O)[O-])o1)NS(=O)(=O)c1cc(C(=O)Nc2ccc(Cl)cc2)c(Cl)cc1SC | 13.5 µM
Cc1ccc(S(=O)(=O)c2c(COC(=O)c3cccc(C)c3)c(-c3ccccc3)nn2C)cc1 | > 100 µM
COc1cc([C@@H]2c3cc4c(cc3[C@@H](c3c(O)cc(O)c5c3O[C@H](c3ccc(O)c(O)c3)[C@@H](O)C5)[C@H]3COC(=O)[C@H]23)OCO4)cc(OC)c1OC | > 100 µM
COc1ccc(C/C(C)=C(/c2ccc(OCCN3CCCCC3)cc2)c2ccc(OC(=O)NCc3ccccc3)cc2)cc1 | 0.706 µM
O=C(Nc1cccc(-n2cc(-c3ccncc3)c(-c3ccc(Cl)c(O)c3)n2)c1)Nc1cc(C(F)(F)F)cc(C(F)(F)F)c1 | 3.01 µM
CC(C)CNc1nc2ncnc(N)c2[nH]1 | > 100 µM
Cc1cccc(/C=N/NC(=S)N2CCCC2)n1 | > 100 µM
O=S(Nc1ccccc1)c1ccc(N2CCOCC2)cc1 (centres undefined) | > 100 µM
CC1=NN(C(=O)c2ccccc2O)C(=O)/C1=C/c1ccc(O)cc1 | > 100 µM
O=c1[nH]nc(-c2ccccc2)n1/N=C\c1ccccc1 | > 100 µM
CSC1=C(N)C(=O)c2[nH]cc(CO)c2C1=N | 0.382 µM
CCCC(=O)NC(Nc1ccc(S(=O)(=O)Nc2cc(C)on2)cc1)(C(=O)OCC)C(F)(F)F (centres undefined) | > 100 µM
C[C@H](NC(=O)C(Cc1ccccc1)(Cc1ccc(O)cn1)NC(=O)c1ccccc1)c1ccccc1 (some centres undefined) | 38.3 µM
COc1ccc(N2C(=O)CC(=O)N(C(=O)COc3ccc(OCC(=O)N4C(=O)CC(=O)N(c5ccc(OC)cc5)C4=S)cc3)C2=S)cc1 | > 100 µM
O=C(N/N=C/C=C/c1ccc([N+](=O)[O-])o1)c1cc2ccccc2cc1O | 4.23 µM
CCCCOC(=O)N1CCN(/[N+]([O-])=N/Oc2ccc([N+](=O)[O-])cc2[N+](=O)[O-])CC1 | 21.4 µM
O=c1cnn(C2OC(CO)C(O)C2O)c(=S)[nH]1 (centres undefined) | > 100 µM
O=C(c1ccc(Cl)cc1Cl)C1[C@H]2C(=O)N(c3ccc(Cc4ccc(N5C(=O)[C@@H]6ON(c7ccccc7)C(C(=O)c7ccc(Cl)cc7Cl)[C@@H]6C5=O)cc4)cc3)C(=O)[C@H]2ON1c1ccccc1 (some centres undefined) | > 50 µM
C[n+]1cccc2c(=O)c3ccccc3oc21 | > 100 µM
Cc1ccc(OCC2OC(n3cnc4c(Cl)nc(N)nc43)CC2Oc2ccc(C)cc2)cc1 (centres undefined) | > 100 µM
NC(=O)CN(CC(N)=O)C(N)=O | > 100 µM
c1cncc(C2N3CCCCC3[C@@H]3c4[nH]c5ccccc5c4CCN23)c1 (some centres undefined) | > 100 µM
CSCCC(N)C(=O)NCCNc1ccc(NCCNC(=O)C(N)CCSC)c2c1C(=O)c1ccccc1C2=O (centres undefined) | 16.3 µM
CC(=O)OCC1OC(SC2=N/C(=C\c3ccc(Br)s3)C(=O)N2CN2CCOCC2)C(OC(C)=O)C(OC(C)=O)C1OC(C)=O (centres undefined) | 49.1 µM
COC(OC)[C@@H]1OC[C@H](n2cnc3c(N)ncnc32)[C@H]1O | > 100 µM
OC(CCNC12CC3CC(CC(C3)C1)C2)c1ccccc1 (centres undefined) | > 100 µM
COc1cccc(-c2c[nH]c3c(N/N=C/c4ccncc4)ncnc23)c1 | > 25 µM

====

- System: CAKI-1 renal
- ASSAY PROTOCOL: NCI tumour cell line growth inhibition, 48 h
TGI of 4 µM or higher: true (1). Under 4 µM: false (0).

COMPOUND | CLASS ASSIGNMENT
O=C(Nc1ccc(Br)cc1F)c1cc(I)ccc1O | true (1)
O=C(Nc1cccc(-n2cc(-c3ccncc3)c(-c3ccc(Cl)c(O)c3)n2)c1)Nc1cc(C(F)(F)F)cc(C(F)(F)F)c1 | false (0)
CCOC(=O)CCC(NC(=O)OCc1ccccc1)C(=O)NC(CCC(=O)OCC)C(=O)NC(CCC(=O)OCC)C(=O)NC(CCC(=O)OCC)C(=O)NC(CCC(=O)OCC)C(=O)NC(CCC(=O)OCC)C(=O)NC(CCC(=O)OCC)C(=O)OCC (stereo not given) | true (1)
CC1CCCC2(CC[N+](C)(CCC[N+](C)(C)C)CC2)C1 (stereo not given) | true (1)
CCOC(=O)/C(C1=NCCN1)=C(\O)c1ccccc1 | true (1)
Cc1ccc(/C(O)=C/c2nc3ccccc3sc2=O)c(C)c1 | true (1)
CCOc1ccc(N/C(=C(/C(Cl)=C(/Cl)N(CC)CC)[N+](=O)[O-])n2nnc3ccccc32)cc1 | true (1)
O=C1C(Nc2ccc(Cl)cc2)=C(I)C(=O)c2ncccc21 | false (0)
COc1cc(OC)c2nc(C)c3c(c2c1)SCC3 | true (1)
CC(=O)NCCC1CN(C(=O)/C=C/I)c2ccccc21 (stereo not given) | true (1)
OC(CCNC12CC3CC(CC(C3)C1)C2)c1ccccc1 (stereo not given) | true (1)
CC(NC(=O)C(NC(=O)CNC(=O)OC(C)(C)C)C(C)C)C(=O)Oc1c(Cl)c(Cl)c(Cl)c(Cl)c1Cl (stereo not given) | true (1)
CCCCC(=O)c1c(O)nc2sccn2c1=O | true (1)
CN(C)CCN1C(=O)c2c(c3c4ccccc4n4c3c3c2c2ccccc2n3C2CC(O)C(O)C4(C)O2)C1=O (stereo not given) | true (1)
COc1cc(C(=O)c2c(-c3ccccc3)oc3c(OC)cccc23)cc(OC)c1OC | true (1)
Cc1ccc2c(=O)cc(-c3ccc(Cl)s3)[nH]c2n1 | true (1)
CC1=NN(C(=O)c2ccccc2O)C(=O)/C1=C/c1ccc(O)cc1 | true (1)
COc1cc([C@@H]2c3cc4c(cc3[C@@H](c3c(O)cc(O)c5c3O[C@H](c3ccc(O)c(O)c3)[C@@H](O)C5)[C@H]3COC(=O)[C@H]23)OCO4)cc(OC)c1OC | false (0)
COc1ccc2c(CN3CCCC[C@H]3C(=O)O)cc3cc4c(cc3c2c1)OCO4 | false (0)
ClCCCc1ccccc1C1=NCCc2ccccc21 | true (1)

====

A collection of compounds and their measured TGI
- Tested on: HCT-15 colon
- ASSAY PROTOCOL: NCI tumour cell line growth inhibition, 48 h
REPORTED ENDPOINT: TGI

COMPOUND | REPORTED ENDPOINT | RESULT
CC1=C(c2cccc(O)c2)[C@H](c2ccc(OCCN3CC(CF)C3)cc2)Oc2ccc(O)cc21 | TGI | 19.6 µM
O=c1cc(N2CCCC2)[nH]c(=O)n1Cc1ccccc1 | TGI | > 100 µM
Cc1csc(NC23CC4CC(CC(C4)C2)C3)[n+]1C(P(=O)([O-])O)P(=O)(O)O (stereo unspecified) | TGI | > 100 µM
O=C1CCCCC1S(=O)(=O)c1ccccc1 (stereo unspecified) | TGI | > 100 µM
COc1cc2c(cc1OC)[C@H](C)N1CCc3cc(OC)c(OC)cc3[C@@H]1C2 | TGI | > 100 µM
O=C1NNC2(C(=O)N1)c1ccccc1-c1ccccc12 | TGI | > 10 µM
